This section presents compounds with their documented DuctApe activity index values.
Tested on: Escherichia coli Nissle 1917
assay overview: DuctApe activity index of respiration/growth curve (0 no growth to 9 maximum) (index 0-9); higher = more growth / nutrient utilisation, active = 3 or more; extreme values may be limits of the assay
test conditions: nutrient role: sole phosphorus source (pyruvate carbon); incubation: 48 h, 37 °C
Simply state the number, no unit and no words.

>>> numeric_result("O=P(O)(O)O[C@H]1[C@H](OP(=O)(O)O)[C@@H](OP(=O)(O)O)[C@H](OP(=O)(O)O)[C@@H](OP(=O)(O)O)[C@H]1OP(=O)(O)O [Inositol Hexaphosphate]")
8.67
>>> numeric_result("Nc1ncnc2c1ncn2[C@@H]1O[C@H](COP(=O)(O)O)[C@@H](O)[C@H]1O [Adenosine 5`-Monophosphate]")
8.67
>>> numeric_result("Nc1ccn([C@@H]2O[C@H](CO)[C@@H](OP(=O)(O)O)[C@H]2O)c(=O)n1 [Cytidine 3`-Monophosphate]")
0

Alright, here's another compound for you.
Look up and report measured DuctApe activity index (Escherichia coli Nissle 1917) for the following compound: Nc1nc2c(ncn2[C@@H]2O[C@H](COP(=O)(O)O)[C@@H](O)[C@H]2O)c(=O)[nH]1 [Guanosine 5`-Monophosphate] 8.67

---

Tested on: Escherichia coli Nissle 1917
assay overview: area under OmniLog respiration curve over 48 h (OmniLog units x h); higher = more growth / nutrient utilisation; extreme values may be limits of the assay
test conditions: nutrient role: C-Source, carbohydrate; incubation: 48 h, 37 °C
This section presents compounds with their documented area under OmniLog respiration curve values.
Simply state the number, no unit and no words.

Solved entries (count: 3):
>>> numeric_result("OC[C@H]1O[C@H](O[C@H]2[C@H](O)[C@@H](O)[C@H](O)O[C@@H]2CO)[C@H](O)[C@@H](O)[C@@H]1O")
7970
>>> numeric_result("O=P(O)(O)OC[C@H](O)CO (racemic) [DL-a-Glycerol Phosphate]")
7910
>>> numeric_result("CO[C@H]1O[C@H](CO)[C@H](O)[C@H](O)[C@H]1O [a-Methyl-D-Galactoside]")
8070

Look up and report measured area under OmniLog respiration curve (Escherichia coli Nissle 1917) for the following compound: OC[C@@H](O)C(O)[C@H](O)CO 4.72

Look up and report measured area under OmniLog respiration curve (Escherichia coli Nissle 1917) for the following compound: O=c1[nH]cnc2c1ncn2[C@@H]1O[C@H](CO)[C@@H](O)[C@H]1O 9540

Look up and report measured area under OmniLog respiration curve (Escherichia coli Nissle 1917) for the following compound: O[C@@H]1[C@H](O)[C@H](O)CO[C@H]1O 9520

Look up and report measured area under OmniLog respiration curve (Escherichia coli Nissle 1917) for the following compound: Nc1ncnc2c1ncn2[C@H]1C[C@H](O)[C@@H](CO)O1 8940

Look up and report measured area under OmniLog respiration curve (Escherichia coli Nissle 1917) for the following compound: O=C(O)[C@H](O)[C@@H](O)[C@H](O)[C@H](O)CO[C@H]1O[C@H](CO)[C@H](O)[C@H](O)[C@H]1O 6790

---

Test system: Escherichia coli Nissle 1917
assay overview: DuctApe activity index of respiration/growth curve (0 no growth to 9 maximum) (index 0-9); higher = more growth / nutrient utilisation, active = 3 or more; extreme values may be limits of the assay
test conditions: nutrient role: C-Source, carbohydrate; incubation: 48 h, 37 °C
Label condition met when DuctApe activity index is at or above 7; otherwise label condition not met.

Below, 3 compounds whose answers are already recorded.
>>> class_name("Cc1cn([C@H]2C[C@H](O)[C@@H](CO)O2)c(=O)[nH]c1=O")
"condition met"
>>> class_name("O[C@@H]1[C@@H](O)[C@@H](O)CO[C@H]1O")
"condition met"
>>> class_name("CC(=O)N[C@@H](CO)[C@@H](O)[C@H](O)[C@H](O)CO")
"condition not met"

DuctApe activity index >= 7 for O=P(O)(O)OC[C@H](O)CO (racemic) [DL-a-Glycerol Phosphate] ? condition met

DuctApe activity index >= 7 for OC[C@@H](O)[C@H](O)[C@@H](O)CO ? condition not met

---

Test system: Escherichia coli Nissle 1917
assay overview: area under OmniLog respiration curve over 48 h (OmniLog units x h); higher = more growth / nutrient utilisation; extreme values may be limits of the assay
test conditions: nutrient role: sole nitrogen source (pyruvate carbon); incubation: 48 h, 37 °C
Label Satisfied when area under OmniLog respiration curve is at or above 6000; otherwise label Not satisfied.

Below, 8 compounds whose answers are already recorded.
>>> class_name("N[C@H](CO)C(=O)O")
"Satisfied"
>>> class_name("O=C1NC(=O)C(=O)N1")
"Not satisfied"
>>> class_name("N[C@H]1C(O)O[C@H](CO)[C@@H](O)[C@@H]1O (some centres not stated)")
"Not satisfied"
>>> class_name("O=C(O)[C@@H]1CCCN1")
"Not satisfied"
>>> class_name("NCC(=O)N[C@@H](CCC(N)=O)C(=O)O")
"Satisfied"
>>> class_name("NCCc1c[nH]cn1")
"Not satisfied"
>>> class_name("C[C@@H](N)C(=O)O")
"Satisfied"
>>> class_name("N[C@@H](CO)C(=O)O")
"Satisfied"

area under OmniLog respiration curve >= 6000 for NCC(=O)O ? Not satisfied

area under OmniLog respiration curve >= 6000 for NC(=O)NCCC[C@H](N)C(=O)O ? Not satisfied

area under OmniLog respiration curve >= 6000 for Nc1ncnc2c1ncn2[C@@H]1O[C@H](CO)[C@@H](O)[C@H]1O ? Satisfied

area under OmniLog respiration curve >= 6000 for NO [Hydroxylamine] ? Not satisfied

area under OmniLog respiration curve >= 6000 for Oc1nc(O)c2nc(O)[nH]c2n1 ? Not satisfied

---

System: Escherichia coli Nissle 1917
assay overview: DuctApe activity index of respiration/growth curve (0 no growth to 9 maximum) (index 0-9); higher = more growth / nutrient utilisation, active = 3 or more; extreme values may be limits of the assay
test conditions: nutrient role: C-Source, amino acid; incubation: 48 h, 37 °C
Thanks in advance; please answer with one of these: true (1) for active, false (0) for inactive

>>> class_name("N[C@@H](Cc1ccccc1)C(=O)O [L-Phenylalanine]")
"false (0)"
>>> class_name("CSCC[C@H](N)C(=O)O [L-Methionine]")
"false (0)"
>>> class_name("CC[C@H](C)[C@H](N)C(=O)O [L-Isoleucine]")
"false (0)"
>>> class_name("N[C@@H](CCC(=O)O)C(=O)O [L-Glutamic acid]")
"true (1)"
>>> class_name("C[C@@H](N)C(=O)O [D-Alanine]")
"true (1)"
>>> class_name("NC(=O)C[C@H](N)C(=O)O [L-Asparagine]")
"true (1)"
>>> class_name("N[C@@H](CCO)C(=O)O [L-Homoserine]")
"false (0)"
>>> class_name("CC(C)C[C@H](N)C(=O)O [L-Leucine]")
"false (0)"
>>> class_name("O=C(O)[C@@H]1C[C@@H](O)CN1 [Hydroxy-L-Proline]")
"false (0)"
>>> class_name("N[C@@H](CC(=O)O)C(=O)O [L-Aspartic acid]")
"true (1)"

Returns: the outcome recorded for NCC(=O)N1CCC[C@H]1C(=O)O in this assay. true (1)

Returns: the outcome recorded for C[C@@H](O)[C@H](N)C(=O)O [L-Threonine] in this assay. true (1)

Returns: the outcome recorded for O=C1CC[C@@H](C(=O)O)N1 [L-Pyroglutamic acid] in this assay. false (0)

---

This section presents compounds with their documented DuctApe activity index values.
Tested on: Escherichia coli Nissle 1917
assay overview: DuctApe activity index of respiration/growth curve (0 no growth to 9 maximum) (index 0-9); higher = more growth / nutrient utilisation, active = 3 or more; extreme values may be limits of the assay
test conditions: nutrient role: C-Source, carboxylic acid; incubation: 48 h, 37 °C

>>> result("O=C(O)[C@@H](O)[C@@H](O)[C@H](O)[C@@H](O)C(=O)O")
"8.67 (active)"

Report DuctApe activity index, nothing else, for this compound: O=C1O[C@@H]([C@H](O)CO)[C@H](O)[C@H]1O 8.33 (active)

Report DuctApe activity index, nothing else, for this compound: O=C1CC[C@@H](C(=O)O)O1 [a-Hydroxyglutaric acid-g-Lactone] 0 (inactive)

Report DuctApe activity index, nothing else, for this compound: O=C(O)[C@]1(O)C[C@@H](O)[C@@H](O)[C@H](O)C1 0 (inactive)

Report DuctApe activity index, nothing else, for this compound: C[C@@H](O)CC(=O)O [b-Hydroxybutyric acid] 1 (inactive)

---

This section presents compounds with their documented DuctApe activity index values.
System: Escherichia coli Nissle 1917
assay overview: DuctApe activity index of respiration/growth curve (0 no growth to 9 maximum) (index 0-9); higher = more growth / nutrient utilisation, active = 3 or more; extreme values may be limits of the assay
test conditions: nutrient role: sole nitrogen source (pyruvate carbon); incubation: 48 h, 37 °C
Simply state the number, no unit and no words.

Solved entries (count: 4):
>>> numeric_result("N[C@@H](Cc1c[nH]c2ccccc12)C(=O)O [L-Tryptophan]")
4.67
>>> numeric_result("C[C@H](N)C(=O)O [L-Alanine]")
8
>>> numeric_result("NCC(=O)N[C@@H](CCC(=O)O)C(=O)O")
8
>>> numeric_result("N[C@@H](Cc1ccc(O)cc1)C(=O)O [L-Tyrosine]")
2.33

Report DuctApe activity index, nothing else, for this compound: CC(O)C(N)=O (racemic) [DL-Lactamide] 0

Report DuctApe activity index, nothing else, for this compound: NCCCC(=O)O [g-Amino-N-Butyric acid] 4

Report DuctApe activity index, nothing else, for this compound: N[C@H](CC(=O)O)C(=O)O [D-Aspartic acid] 0

Report DuctApe activity index, nothing else, for this compound: C[C@H](N)C(=O)N[C@@H](CCC(N)=O)C(=O)O 8

Report DuctApe activity index, nothing else, for this compound: Nc1nc2[nH]cnc2c(=O)[nH]1 [Guanine] 0

Report DuctApe activity index, nothing else, for this compound: N[C@H](CO)C(=O)O [D-Serine] 7.67

Report DuctApe activity index, nothing else, for this compound: NCCCCN=C(N)N [Agmatine] 0

Report DuctApe activity index, nothing else, for this compound: O=C1NC(=O)C(=O)N1 [Parabanic acid] 1.33

Report DuctApe activity index, nothing else, for this compound: N[C@@H](CO)C(=O)O [L-Serine] 8

Report DuctApe activity index, nothing else, for this compound: N[C@H]1C(O)O[C@H](CO)[C@H](O)[C@@H]1O (stereo partly drawn) [D-Galactosamine] 0

Report DuctApe activity index, nothing else, for this compound: CC(C)[C@@H](N)C(=O)O [D-Valine] 0.667

Report DuctApe activity index, nothing else, for this compound: NCC(=O)N[C@@H](CC(N)=O)C(=O)O 8
